Consider the following compounds; for each one, report its melting point.
Structures can show the parent of a compound that is named as a salt.

Query block: Which melting point is listed for CN(CCC(Oc1ccc(C(=O)c2cc3ccccc3s2)cc1)c1ccc(F)cc1)CC(=O)O (stereo not shown) (as salt: salt) ?
Result block: 90 to 100 °C

Query block: Again, but for CN(CCC(Oc1ccc(C(=O)c2ccc(F)cc2F)cc1)c1ccc(F)cc1)CC(=O)O (stereo not shown) (as salt: salt)
Result block: 65 to 75 °C

Query block: What about this compound? Cc1ccc(C(=O)c2ccc(OC(CCN(C)CC(=O)O)c3ccccc3)cc2)cc1 (stereo not shown) (as salt: salt)
Result block: 85 to 95 °C

Query block: One more compound: CC(C)c1ccc(C(=O)c2ccc(OC(CCN(C)CC(=O)O)c3ccc(F)cc3)cc2)cc1 (stereo not shown) (as salt: salt)
Result block: 70 to 80 °C

###

Provide the recorded melting point for the entries that follow.
Where a name gives a salt, the structure may show the parent alone.

Query block: Entry CN(CCC(Oc1ccc(C(=O)c2ccc(C(F)(F)F)cc2)cc1)c1ccc(Cl)cc1)CC(=O)O (centres unmarked) (as salt: salt) : reported melting point = ?
Result block: 63 to 70 °C

Query block: // repeat for Cc1ccc(C(=O)c2ccc(OC(CCN(C)CC(=O)O)c3ccc(F)cc3)cc2)nc1 (centres unmarked) and report
Result block: 55 to 65 °C

Query block: Moving on to CN(CCC(Oc1ccc(C(=O)c2ccc3ccccc3c2)cc1)c1ccccc1)CC(=O)O (centres unmarked) (as salt: salt)
Result block: 77 to 89 °C

Query block: // repeat for Cc1ccc(C(=O)c2ccc(OC(CCN(C)CC(=O)O)c3ccc(F)cc3)cc2)cc1 (centres unmarked) (as salt: salt) and report
Result block: 60 to 70 °C

Query block: Request: CN(CCC(Oc1cccc(C(=O)c2ccncc2)c1)c1ccc(F)cc1)CC(=O)O (centres unmarked)
Result block: 60 to 70 °C

Query block: What do you have for CN(CCC(Oc1ccc(C(=O)c2ccc(C(F)(F)F)cc2)cc1)c1ccccc1)CC(=O)O (centres unmarked) (as salt: salt) ?
Result block: 65 to 83 °C

Query block: Check CN(CCC(Oc1ccc(C(=O)c2ccc(C(F)(F)F)cc2)cc1)c1ccc(F)cc1)CC(=O)O (centres unmarked) (as salt: salt) too.
Result block: 58 to 72 °C

Query block: Also CN(CCC(Oc1ccc(C(=O)c2ccc(Cl)cc2)cc1)c1ccc(F)cc1)CC(=O)O (centres unmarked) (as salt: salt) ?
Result block: 71 to 85 °C

Query block: What would you report for CN(CCC(Oc1cccc(C(=O)c2ccncc2)c1)c1ccc(Cl)cc1)CC(=O)O (centres unmarked) ?
Result block: 68 to 78 °C

Query block: Another molecule: CN(CCC(Oc1ccc(C(=O)c2cccc3ccccc23)cc1)c1ccc(F)cc1)CC(=O)O (centres unmarked) (as salt: salt)
Result block: 91 to 100 °C

Query block: Then what about the molecule Cc1cccc(C(=O)c2ccc(OC(CCN(C)CC(=O)O)c3ccc(Cl)cc3)cc2)c1C (centres unmarked) (as salt: salt) ?
Result block: 85 to 93 °C

Query block: CN(CCC(Oc1ccc(C(=O)c2ccc(F)cc2)cc1)c1ccccc1)CC(=O)O (centres unmarked) (as salt: salt) , same question.
Result block: 65 to 83 °C

Query block: Also check CN(CCC(Oc1ccc(C(=O)c2ccc(F)cc2F)cc1)c1ccc(Cl)cc1)CC(=O)O (centres unmarked) (as salt: salt)
Result block: 75 to 85 °C

Query block: Queued: CN(CCC(Oc1ccc(C(=O)c2nccs2)cc1)c1ccc(Cl)cc1)CC(=O)O (centres unmarked)
Result block: 80 to 100 °C

Query block: And for Cc1cccc(C(=O)c2ccc(OC(CCN(C)CC(=O)O)c3ccc(F)cc3)cc2)c1C (centres unmarked) (as salt: salt) ?
Result block: 83 to 93 °C

Query block: Another molecule to look at: Cc1cccc(C(=O)c2ccc(OC(CCN(C)CC(=O)O)c3ccc(F)cc3)cc2)c1 (centres unmarked) (as salt: salt)
Result block: 75 to 85 °C

Query block: Query CN(CCC(Oc1ccc(C(=O)c2ccsc2)cc1)c1ccc(Cl)cc1)CC(=O)O (centres unmarked) (as salt: salt) next
Result block: 91 to 110 °C
